These measurements were taken from PubChem BioAssay (NCI).

assay: NCI Yeast Anticancer Drug Screen. Data for the cln2 rad14 strain (AID 165); conditions: S. cerevisiae cln2 rad14 strain, at 50.0 µM
The panel holds about 79,000 compounds, 15% with a hit somewhere; the sample as a whole holds those more often. Activity calls are given as the source filed them. No stated cut-off is given here; in the data, active means growth inhibition above about 70%; inactive means the rest.
Can you answer with just one of these options? active, inactive

Reference set (8 entries):
Please let me know the test result on file for CCOP(=O)(OCC)Oc1ccc([N+](=O)[O-])cc1 . inactive

What about this compound? [I][Hg][CH2]C1COCC([CH2][Hg][I])O1 (stereo unspecified) active

What about this compound? CC(NCCN(C)C)C1CC2CCCCN2C1 (stereo unspecified) inactive

What about this compound? Oc1c(Cl)c(Cl)c(Cl)c(Cl)c1Cl.[Cu+2] active

What about this compound? CC/C(=C(/CC)c1ccc(OP(N)(=O)N(CCCl)CCCl)cc1)c1ccc(OP(N)(=O)N(CCCl)CCCl)cc1 (stereo unspecified) inactive

What about this compound? Nc1ncc(CCCCc2ccc(NC(=O)Nc3ccc(S(=O)(=O)F)cc3)cc2)c(N)n1 active

What about this compound? CCN(CCCl)c1cc(CN(C)C)cc(NC(=O)c2ccc(C(=O)Nc3cccc(N(CCCl)NN)c3)cc2)c1 inactive

What about this compound? CCCCCCCCCCCCCCCCCC(=O)[O][Hg][c]1ccccc1 active

Continuing:
Please let me know the test result on file for O=[N+]([O-])c1csc([N+](=O)[O-])c1 . active

What about this compound? O=C(OCc1ccccc1)C(C(Cl)c1ccccc1)N(Cc1ccccc1)Cc1ccccc1 (stereo unspecified) active

What about this compound? CC1(C)OC2OC3C(CN(CCCl)Cc4ccccc4)OC(c4ccccc4)OC3C2O1 (stereo unspecified) inactive

What about this compound? O=C(CCCC(=O)NNC(=O)Nc1cccc(S(=O)(=O)F)c1)NNC(=O)Nc1cccc(S(=O)(=O)F)c1 inactive

What about this compound? CCOC(=O)C1([Se]c2ccccc2)CCCC1=O (stereo unspecified) active

What about this compound? C/C(CCl)=N/NC1=NC(c2ccccc2Cl)P(=O)(NCCCNP2(=O)SC(N/N=C(/C)CCl)=NC2c2ccccc2Cl)S1 (stereo unspecified) active
